Items are presented alongside their recorded cell viability (log2).
tested on: A673/TR/shEF; assay: cell viability (LOESS-normalised, relative to median of negative controls) (log2 ratio); higher = more viable cells (less compound effect), active = hit call of the paper (over 3 MAD below the median); settings: 0.25 µM; library screen: screen1; EWS-FLI1 expression: low (doxycycline-induced shRNA knockdown); treatment time: 72 h
About 300 (9.4%) of roughly 3,200 compounds showed activity. Shown is part of a subset that was picked to be rich in actives.

| compound | cell viability (log2) |
| --- | --- |
| COc1c(-c2coc3cc4c(cc3c2=O)CC(O)C(C)(C)O4)ccc2c1C=CC(C)(C)O2 (centres undefined) | 0.0244 |
| COc1c2c(cc3occ(-c4ccc5c(c4)OCO5)c(=O)c13)OC(C)(C)C=C2 | 0.05 |
| CC(C)=CCc1c2c(c3occ(-c4ccc(O)c(O)c4)c(=O)c3c1O)C=CC(C)(C)O2 | 0.0868 |
| COc1cc2c(cc1-c1coc3c4c(ccc3c1=O)OC(C)(C)C=C4)OCO2 | 0.0365 |
| O=C(O)c1cc(=O)c(O)c2c(O)c(O)ccc2c1 | 0.0312 |
| CC(=O)O[C@@H]1CC2C(C)(C)C(=O)CC[C@]2(C)C2CC[C@]3(C)C(=CC(=O)O[C@H]3c3ccoc3)[C@@]21C (some centres undefined) | 0.142 |
| COc1cccc(-n2c(C)c(C(C)=O)c(C(C)=O)c2C)c1 | 0.00668 |
| CC(=O)O[C@@H]1CC[C@@]2(C)[C@H](CC[C@@H]3[C@@H]2C[C@H](OC(C)=O)[C@]2(C)[C@@H](C(C)=O)CC[C@@H]32)C1 | 0.117 |
| O=c1c(-c2ccc3c(c2)OCO3)coc2cc(O)ccc12 | 0.0865 |

The origin of these recorded values is the supplement of paper PMC6089552.
